molecular target: B2 bradykinin receptor (Homo sapiens); assay: Antagonist activity at human bradykinin B2 receptor expressed in dhfr-deficient CHO cells assessed as inhibition of bradykinin-induced inositol monophosphate accumulation preincubated for 15 mins prior bradykinin induction measured after 40 mins by liquid scintillation spectrometry; format: functional, cell-based; conditions: read-out: pA2 (converted)
reported_property: Kb

* Cc1cc(C)c2cccc(OCc3c(Cl)ccc(S(=O)(=O)NC4(C(=O)N5CCC(CNCCCC[N+](C)(C)C)CC5)CCOCC4)c3Cl)c2n1 | 2.51 nM
* Cc1cc(C)c2cccc(OCc3c(Cl)ccc(S(=O)(=O)NC4(C(=O)N5CCC(CCC[N+](C)(C)C)CC5)CCOCC4)c3Cl)c2n1 | 1.58 nM
* Cc1cc(C)c2cccc(OCc3c(Cl)ccc(S(=O)(=O)NC4(C(=O)N5CCN(CCCCCC[N+](C)(C)C)CC5)CCOCC4)c3Cl)c2n1 | 0.794 nM
* Cc1cc(C)c2cccc(OCc3c(Cl)ccc(S(=O)(=O)NC4(C(=O)N5CC[N+]6(CCCCC6)CC5)CCOCC4)c3Cl)c2n1 | 2.63 nM
* Cc1cc(C)c2cccc(OCc3c(Cl)ccc(S(=O)(=O)NC4(C(=O)N5CC[N+](C)(CCCCC[N+](C)(C)C)CC5)CCOCC4)c3Cl)c2n1 | 2.51 nM
* Cc1cc(C)c2cccc(OCc3c(Cl)ccc(S(=O)(=O)NC4(C(=O)N5CCN(C(=O)[C@@H](N)CCCN)CC5)CCOCC4)c3Cl)c2n1 | 0.724 nM
* Cc1cc(C)c2cccc(OCc3c(Cl)ccc(S(=O)(=O)NC4(C(=O)N5CCC(C[N+](C)(C)C)CC5)CCOCC4)c3Cl)c2n1 | 5.01 nM

* * *

Listed compounds paired with reported Kb
target: B2 bradykinin receptor (Homo sapiens, UniProt P30411); test: Antagonist activity at human bradykinin B2 receptor expressed in dhfr-deficient CHO cells assessed as inhibition of bradykinin-induced inositol monophosphate accumulation preincubated for 15 mins prior bradykinin induction measured after 40 mins by liquid scintillation spectrometry; format: functional, cell-based; conditions: read-out: pA2 (converted)
Sequence (P30411 whole entry): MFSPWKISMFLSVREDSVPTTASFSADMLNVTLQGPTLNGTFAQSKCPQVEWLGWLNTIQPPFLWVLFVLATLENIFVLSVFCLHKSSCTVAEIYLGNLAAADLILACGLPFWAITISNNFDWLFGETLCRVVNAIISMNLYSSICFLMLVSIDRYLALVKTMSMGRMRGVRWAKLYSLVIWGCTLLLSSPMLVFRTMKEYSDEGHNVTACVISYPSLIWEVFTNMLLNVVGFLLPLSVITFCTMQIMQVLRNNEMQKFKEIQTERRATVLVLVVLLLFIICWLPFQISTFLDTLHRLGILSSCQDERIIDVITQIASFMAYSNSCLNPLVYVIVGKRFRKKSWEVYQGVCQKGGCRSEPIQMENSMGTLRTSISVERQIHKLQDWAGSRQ
reported_property: Kb (nM)

- Cc1cc(C)c2cccc(OCc3c(Cl)ccc(S(=O)(=O)NC4(C(=O)N5CC[N+](C)(CCCC[N+](C)(C)C)CC5)CCOCC4)c3Cl)c2n1: 2
- Cc1cc(C)c2cccc(OCc3c(Cl)ccc(S(=O)(=O)NC4(C(=O)N5CC[N+](C)(CC[N+](C)(C)C)CC5)CCOCC4)c3Cl)c2n1: 3.16
- Cc1cc(C)c2cccc(OCc3c(Cl)ccc(S(=O)(=O)NC4(C(=O)N5CCN(C(=O)CCCCCC[N+](C)(C)C)CC5)CCOCC4)c3Cl)c2n1: 1.26

* * *

Each record here notes measured Kb.
target: B2 bradykinin receptor (Homo sapiens); assay: Antagonist activity at human bradykinin B2 receptor expressed in dhfr-deficient CHO cells assessed as inhibition of bradykinin-induced inositol monophosphate accumulation preincubated for 15 mins prior bradykinin induction measured after 40 mins by liquid scintillation spectrometry; format: functional, cell-based; settings: read-out: pA2 (converted)
reported_property: Kb (nM)

- Cc1cc(C)c2cccc(OCc3c(Cl)ccc(S(=O)(=O)NC4(C(=O)N5CCN(C(=O)CCCCN)CC5)CCOCC4)c3Cl)c2n1: 0.479
- Cc1cc(C)c2cccc(OCc3c(Cl)ccc(S(=O)(=O)NC4(C(=O)N5CC[N+](C)(CCC[N+](C)(C)C)CC5)CCOCC4)c3Cl)c2n1: 1
- Cc1cc(C)c2cccc(OCc3c(Cl)ccc(S(=O)(=O)NC4(C(=O)N5CCN(C(=O)[C@@H](N)CCCCN)CC5)CCOCC4)c3Cl)c2n1: 0.398

// provenance: ChEMBL document CHEMBL1955756
